# assayInfo: AUC in mouse at 1 mg/kg, po administered as cassette dose by LC/MS/MS analysis
# Format: ADME, organism-based
# conditionContext: in vivo
resultType: AUC (ng·h/mL)
Numbers only, in ng·h/mL.

See these solved cases before continuing.
[[record]]
molecule = "Cn1nc(C(F)(F)F)cc1-c1cnc(N2CCc3cc(S(=O)(=O)Nc4c(F)cc(Cl)cc4F)cc(N4CCCC4=O)c32)nc1 [TP-020]"
readingunit = "ng·h/mL"
testresult = 2440

[[record]]
molecule = "Cn1nc(C(F)(F)F)cc1-c1cnc(N2CCc3cc(S(=O)(=O)Nc4c(F)cc(Cl)cc4F)cc(N4CCNC4=O)c32)nc1"
readingunit = "ng·h/mL"
testresult = 72


Next, consider the following molecule.
GET /values?readout=AUC&item= Cc1cc(C(F)(F)F)nn1-c1cnc(N2CCc3cc(S(=O)(=O)Nc4c(F)cc(Cl)cc4F)cc(N4CCCC4=O)c32)nc1
1120

Where do these numbers come from? They come from ChEMBL document CHEMBL5678813.
